Biological target: Human immunodeficiency virus type 1 integrase (Human immunodeficiency virus 1) (UniProt Q7ZJM1)
Sequence (Q7ZJM1 as listed by the source): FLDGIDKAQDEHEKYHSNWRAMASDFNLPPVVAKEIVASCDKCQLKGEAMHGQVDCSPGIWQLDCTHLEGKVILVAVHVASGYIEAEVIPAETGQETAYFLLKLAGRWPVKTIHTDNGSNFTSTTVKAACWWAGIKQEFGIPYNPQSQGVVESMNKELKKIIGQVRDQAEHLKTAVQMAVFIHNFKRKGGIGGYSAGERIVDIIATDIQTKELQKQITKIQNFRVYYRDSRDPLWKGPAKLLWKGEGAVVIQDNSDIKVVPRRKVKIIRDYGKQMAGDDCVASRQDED
Test: Binding affinity to HIV-1 integrase measured after overnight incubation by chemiluminescence analysis relative to IN 118-128
Parameters: concentration or dose not given beside the values
Square brackets hold non-standard residues; d marks the D form. Peptide text beside a SMILES is read from it. NMeT = CN[C@H](C(=O)O)[C@@H](C)O; NMeS = CN[C@@H](CO)C(=O)O; Sar = CNCC(=O)O
Endpoint: Activity (%)
Number in %, nothing else.

For CC(C)[C@H](NC(=O)[C@@H](NC(=O)[C@@H](NC(=O)[C@H](CO)NC(=O)[C@H]([C@@H](C)O)N(C)C(=O)[C@H](Cc1ccccc1)NC(=O)[C@H](CC(N)=O)NC(=O)[C@H](CO)NC(=O)CN)[C@@H](C)O)[C@@H](C)O)C(=O)N[C@@H](CCCCN)C(=O)N[C@@H](C)C(=O)O (H-GSNF[NMeT]STTVKA-OH) , what is its reported Activity? 165

For CC(C)[C@H](NC(=O)[C@@H](NC(=O)[C@@H](NC(=O)[C@H](CO)N(C)C(=O)[C@@H](NC(=O)[C@H](Cc1ccccc1)NC(=O)[C@H](CC(N)=O)NC(=O)[C@H](CO)NC(=O)CN)[C@@H](C)O)[C@@H](C)O)[C@@H](C)O)C(=O)N[C@@H](CCCCN)C(=O)N[C@@H](C)C(=O)O (H-GSNFT[NMeS]TTVKA-OH) , what is its reported Activity? 312

For CNCC(=O)N[C@@H](CO)C(=O)N[C@@H](CC(N)=O)C(=O)N[C@@H](Cc1ccccc1)C(=O)N[C@H](C(=O)N[C@@H](CO)C(=O)N[C@H](C(=O)N[C@H](C(=O)N[C@H](C(=O)N[C@@H](CCCCN)C(=O)N[C@@H](C)C(=O)O)C(C)C)[C@@H](C)O)[C@@H](C)O)[C@@H](C)O (H-[Sar]SNFTSTTVKA-OH) , what is its reported Activity? 181

For CC(C)[C@H](NC(=O)[C@@H](NC(=O)[C@@H](NC(=O)[C@H](C)NC(=O)[C@@H](NC(=O)[C@H](Cc1ccccc1)NC(=O)[C@H](CC(N)=O)NC(=O)[C@H](CO)NC(=O)CN)[C@@H](C)O)[C@@H](C)O)[C@@H](C)O)C(=O)N[C@@H](CCCCN)C(=O)N[C@@H](C)C(=O)O (H-GSNFTATTVKA-OH) , what is its reported Activity? 135

For CC(C)[C@H](NC(=O)[C@@H](NC(=O)[C@@H](NC(=O)[C@H](CO)NC(=O)[C@@H](NC(=O)[C@H](Cc1ccccc1)NC(=O)[C@H](CC(N)=O)NC(=O)[C@H](CO)NC(=O)[C@H](C)N)[C@@H](C)O)[C@@H](C)O)[C@@H](C)O)C(=O)N[C@@H](CCCCN)C(=O)N[C@@H](C)C(=O)O (H-ASNFTSTTVKA-OH) , what is its reported Activity? 116

For CC(C)[C@H](NC(=O)[C@@H](NC(=O)[C@@H](NC(=O)[C@H](CO)NC(=O)[C@@H](NC(=O)[C@H](Cc1ccccc1)NC(=O)[C@H](CC(N)=O)NC(=O)[C@H](C)NC(=O)CN)[C@@H](C)O)[C@@H](C)O)[C@@H](C)O)C(=O)N[C@@H](CCCCN)C(=O)N[C@@H](C)C(=O)O (H-GANFTSTTVKA-OH) , what is its reported Activity? 177

For CC(C)[C@H](NC(=O)[C@@H](NC(=O)[C@@H](NC(=O)[C@H](CO)NC(=O)[C@@H](NC(=O)[C@H](Cc1ccccc1)NC(=O)[C@@H](N)CC(N)=O)[C@@H](C)O)[C@@H](C)O)[C@@H](C)O)C(=O)N[C@@H](CCCCN)C(=O)N[C@@H](C)C(=O)O (H-NFTSTTVKA-OH) , what is its reported Activity? 119

###

I'd appreciate it if you could supply Activity values for the items below.
System: Human immunodeficiency virus 1
Assay: Binding affinity to HLT-tagged HIV-1 Rev measured after overnight incubation by chemiluminescence analysis relative to IN 174-188
Set-up: concentration or dose not given beside the values
Square brackets hold non-standard residues; d marks the D form. Peptide text beside a SMILES is read from it. NMeI = CC[C@H](C)[C@H](NC)C(=O)O; NMeA = CN[C@@H](C)C(=O)O
Number in %, nothing else.

For CC[C@H](C)[C@H](NC(=O)[C@H](Cc1ccccc1)NC(=O)[C@@H](NC(=O)[C@H](C)NC(=O)[C@H](CCSC)NC(=O)[C@H](C)NC(=O)[C@@H](NC(=O)[C@H](C)NC(=O)[C@@H](N)[C@@H](C)O)C(C)C)C(C)C)C(=O)N[C@@H](Cc1cnc[nH]1)C(=O)N[C@@H](CC(N)=O)C(=O)N[C@@H](Cc1ccccc1)C(=O)N[C@@H](CCCCN)C(=O)N[C@@H](CCCNC(=N)N)C(=O)N[C@@H](CCCCN)C(=O)O (H-TAVAMAVFIHNFKRK-OH) , what is its reported Activity? 79

For CC[C@H](C)[C@H](NC(=O)[C@H](Cc1ccccc1)NC(=O)[C@@H](NC(=O)[C@H](C)NC(=O)[C@H](CCSC)NC(=O)[C@H](CCC(N)=O)NC(=O)[C@@H](NC(=O)[C@H](C)NC(=O)[C@@H](N)[C@@H](C)O)C(C)C)C(C)C)C(=O)N[C@@H](Cc1cnc[nH]1)C(=O)N[C@@H](CC(N)=O)C(=O)N[C@@H](Cc1ccccc1)C(=O)N[C@@H](CCCCN)C(=O)N[C@@H](CCCNC(=N)N)C(=O)N[C@H](CCCCN)C(=O)O , what is its reported Activity? 110

For CC[C@H](C)[C@H](NC(=O)[C@H](Cc1ccccc1)NC(=O)[C@@H](NC(=O)[C@H](C)NC(=O)[C@H](CCSC)NC(=O)[C@H](CCC(N)=O)NC(=O)[C@@H](NC(=O)[C@H](C)N(C)C(=O)[C@@H](N)[C@@H](C)O)C(C)C)C(C)C)C(=O)N[C@@H](Cc1cnc[nH]1)C(=O)N[C@@H](CC(N)=O)C(=O)N[C@@H](Cc1ccccc1)C(=O)N[C@@H](CCCCN)C(=O)N[C@@H](CCCNC(=N)N)C(=O)N[C@@H](CCCCN)C(=O)O (H-T[NMeA]VQMAVFIHNFKRK-OH) , what is its reported Activity? 86

For CC[C@H](C)[C@@H](C(=O)N[C@@H](Cc1cnc[nH]1)C(=O)N[C@@H](CC(N)=O)C(=O)N[C@@H](Cc1ccccc1)C(=O)N[C@@H](CCCCN)C(=O)N[C@@H](CCCNC(=N)N)C(=O)N[C@@H](CCCCN)C(=O)O)N(C)C(=O)[C@H](Cc1ccccc1)NC(=O)[C@@H](NC(=O)[C@H](C)NC(=O)[C@H](CCSC)NC(=O)[C@H](CCC(N)=O)NC(=O)[C@@H](NC(=O)[C@H](C)NC(=O)[C@@H](N)[C@@H](C)O)C(C)C)C(C)C (H-TAVQMAVF[NMeI]HNFKRK-OH) , what is its reported Activity? 107

For CC[C@H](C)[C@H](NC(=O)[C@H](Cc1ccccc1)NC(=O)[C@@H](NC(=O)[C@H](C)NC(=O)[C@H](CCSC)NC(=O)[C@H](CCC(N)=O)NC(=O)[C@@H](NC(=O)[C@H](C)NC(=O)[C@@H](N)[C@@H](C)O)C(C)C)C(C)C)C(=O)N[C@@H](Cc1cnc[nH]1)C(=O)N[C@@H](C)C(=O)N[C@@H](Cc1ccccc1)C(=O)N[C@@H](CCCCN)C(=O)N[C@@H](CCCNC(=N)N)C(=O)N[C@@H](CCCCN)C(=O)O (H-TAVQMAVFIHAFKRK-OH) , what is its reported Activity? 105

###

Test system: Human immunodeficiency virus 1
Test: Binding affinity to HLT-tagged HIV-1 Rev measured after overnight incubation by chemiluminescence analysis relative to IN 118-128
Set-up: concentration or dose not given beside the values
Square brackets hold non-standard residues; d marks the D form. Peptide text beside a SMILES is read from it. NMeT = CN[C@H](C(=O)O)[C@@H](C)O
I'd appreciate it if you could supply Activity values for the items below.
Number in %, nothing else.

API: value(readout= Activity, system= Human immunodeficiency virus 1, query= CC(C)[C@H](NC(=O)[C@@H](NC(=O)[C@@H](NC(=O)[C@H](CO)NC(=O)[C@@H](NC(=O)[C@H](Cc1ccccc1)NC(=O)[C@H](CC(N)=O)NC(=O)[C@H](CO)NC(=O)CN)[C@@H](C)O)[C@@H](C)O)[C@@H](C)O)C(=O)N[C@@H](CCCCN)C(=O)O (H-GSNFTSTTVK-OH) ) 201

API: value(readout= Activity, system= Human immunodeficiency virus 1, query= CC(C)[C@H](NC(=O)[C@@H](NC(=O)[C@@H](NC(=O)[C@H](CO)NC(=O)[C@H]([C@@H](C)O)N(C)C(=O)[C@H](Cc1ccccc1)NC(=O)[C@H](CC(N)=O)NC(=O)[C@H](CO)NC(=O)CN)[C@@H](C)O)[C@@H](C)O)C(=O)N[C@@H](CCCCN)C(=O)N[C@@H](C)C(=O)O (H-GSNF[NMeT]STTVKA-OH) ) 200
